tested.target: UniProtKB P51965
Sequence (P51965 whole entry): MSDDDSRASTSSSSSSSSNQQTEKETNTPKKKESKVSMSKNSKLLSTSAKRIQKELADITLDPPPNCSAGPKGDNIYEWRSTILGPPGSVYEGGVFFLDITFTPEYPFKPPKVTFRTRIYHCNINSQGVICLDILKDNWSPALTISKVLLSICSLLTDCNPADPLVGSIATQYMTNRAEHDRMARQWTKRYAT
test.method.notes: HTRF Assay : The UAE enzymatic reaction totals 50 μL and contains 50 mmol HEPES (pH 7.5), 0.05% BSA, 2.5 mM MgCl2, 0.1 uM ATP, 8 nM GST-Ubc-2, 35 nM flag-ubiquitin, 1 nM recombinant human UAE or mouse UAE. Compounds for this hUAE 1050 assay are tested at 10 point 3-fold dilution. The top concentration for this assay is 1 μM. Each compound is ordered in duplicate on the same plate.
experimental.readout: IC50

NS(=O)(=O)OC[C@H]1C[C@@H](Nc2ccnc3cc(-c4cccc5ccccc45)nn23)[C@H](O)[C@@H]1O (racemic) has a reported IC50 of < 10 nM

This collection of values is drawn from ChEMBL document CHEMBL5726263.
